System: IGROV1 ovarian
Protocol Text: NCI-60 one-dose screen, 48 h
Test Context: 10 µM unless noted
Compounds without any hit were thinned out: in the full panel of roughly 83,000, 20% have a hit. Active and inactive are the calls of the source. Rule for the calls: active = growth percent below 10; inactive = the rest.
Outcomes: 1.0 (active), 0.0 (inactive)

Molecule: CC/C=C\C/C=C\C[C@H]1C/C=C2/C(=O)C=C[C@@H]2C/C=C\CCC(=O)O1
Target Under Test: IGROV1 ovarian
Class Assignment: 0.0
//
Molecule: C#CCOc1ccc2ncnc(N3CCC(NC(=O)CCl)CC3)c2c1
Target Under Test: IGROV1 ovarian
Class Assignment: 0.0
//
Molecule: N#CN1CC[C@H](C(=O)Nc2cc3cc(C(N)=O)ccc3cn2)C1
Target Under Test: IGROV1 ovarian
Class Assignment: 0.0
//
Molecule: CN1CCN(c2ccc(Nc3c4ccccc4nc4ccccc34)cc2)CC1
Target Under Test: IGROV1 ovarian
Class Assignment: 0.0
//
Molecule: CN(CCCCCl)P(=O)(OCc1ccc([N+](=O)[O-])o1)C(F)(F)c1ccc(CC(=O)NC[C@@H](O)/C=C\[C@@H](O)[C@H](CO)Cc2ccccc2)cc1 (stereo partly specified)
Target Under Test: IGROV1 ovarian
Class Assignment: 0.0
//
Molecule: NC(=NC1C2CC3CC(C2)CC1C3)Nc1ccc(I)cc1 (stereo unspecified)
Target Under Test: IGROV1 ovarian
Class Assignment: 1.0

Just for reference, PubChem BioAssay (NCI) is where these values come from.
